The reported measurements were obtained from ChEMBL document CHEMBL3779850.

target: Peroxisome proliferator-activated receptor alpha (Homo sapiens); assay: Transactivation of PPARalpha (unknown origin) expressed in HEK293A cells at 150 uM after 16 to 18 hrs by luciferase reporter assay relative to control; assay type: cell-based; details: HEK293-A
readout-label: fold change (FC)

compound=CC(C)(Oc1ccc(CCNC(=O)c2ccc(Cl)cc2)cc1)C(=O)NS(=O)(=O)c1ccccc1 assay_system="Peroxisome proliferator-activated receptor alpha (Homo sapiens)" readout_label="fold change (FC)" operator== reported=0.28
compound=Cc1ccc(C)c(OCCCC(C)(C)C(=O)NS(=O)(=O)c2ccccc2)c1 assay_system="Peroxisome proliferator-activated receptor alpha (Homo sapiens)" readout_label="fold change (FC)" operator== reported=0.05
compound="CCCC(Sc1nc2cc(Cl)ccc2s1)C(=O)NS(=O)(=O)c1ccc(NC(C)=O)cc1 (stereo not given)" assay_system="Peroxisome proliferator-activated receptor alpha (Homo sapiens)" readout_label="fold change (FC)" operator== reported=0.2
compound=CC(C)(Oc1ccc(Cl)cc1)C(=O)NS(=O)(=O)c1ccccc1 assay_system="Peroxisome proliferator-activated receptor alpha (Homo sapiens)" readout_label="fold change (FC)" operator== reported=0.47
compound="CCCC(Sc1nc2cc(Cl)ccc2s1)C(=O)NS(=O)(=O)c1ccc(C)cc1 (stereo not given)" assay_system="Peroxisome proliferator-activated receptor alpha (Homo sapiens)" readout_label="fold change (FC)" operator=< reported=0.01
